Ref: PubChem BioAssay (NCI)

- System: KM12 colon
- Test protocol: NCI-60 one-dose screen, 48 h (100 = growth as untreated, 0 = no growth, -100 = all killed)
- Condition parameters: 10 µM unless noted
About 83,000 compounds went through this panel and 20% of them were active in at least one assay; those are over-represented in the sample as a whole.
Would you mind telling me the reported growth of each entry?
The response must be a number in % with no trailing unit.

-- ask Could you share what growth was measured for NC(=O)c1ccc2c(c1)OCO2 , tested on KM12 colon?
-- reply 103

-- ask Could you share what growth was measured for O=C(CNC(=O)c1cccc2ccccc12)Nc1ccccc1Oc1ccccc1 , tested on KM12 colon?
-- reply 9.93

-- ask Write down the reported growth of C=CCN=C1NC(=O)/C(=C/c2cc(C(C)(C)C)c(O)c(C(C)(C)C)c2)S1 , test system: KM12 colon.
-- reply 61.4

-- ask Could you share what growth was measured for COc1ccc2c(c1)C(C)Cc1c(N(C)C)ncnc1N2C (stereo not given) , tested on KM12 colon?
-- reply 23.6

-- ask // lookup growth | system=KM12 colon | key= CC(C)(C)c1ccc(S(=O)(=O)Oc2ccc3c4c(c(=O)oc3c2)CCCCC4)cc1
-- reply 55.1

-- ask Missing value: growth, KM12 colon, entry CC1=NN2C(=NC3=C(CCC/C3=C\c3ccc(Cl)cc3)C2c2ccc(Cl)cc2)S1 (stereo not given) . Fill in?
-- reply 77.2

-- ask Please tell me: growth of CN(C)CCCNC(=O)C(c1ccccc1)c1ccccc1 , system KM12 colon?
-- reply 111

-- ask Request: growth, test system KM12 colon, entry CC/C=C\C[C@H](O)C/C=C1/C(=O)C(Cl)=C[C@@H]1C/C=C\CCCC(=O)OC
-- reply -81.5

-- ask Give KM12 colon growth for COC(=O)[C@H]1[C@H](OC)[C@@H](OC(=O)/C=C/c2ccncc2)CC2CN3CCc4c([nH]c5cc(OC)ccc45)[C@@H]3C[C@@H]21 (stereo not given in full)
-- reply 93.6

-- ask What reported growth corresponds to COc1cccc2cc(-c3cc4ccccc4[nH]3)/c(=N/C(=S)Nc3ccccc3)oc12 on KM12 colon?
-- reply 88.3

-- ask Recorded growth for O=C(N/N=C/c1c(Cl)cccc1Cl)c1ccccc1Nc1ccnc(C(F)(F)F)c1 with KM12 colon, please?
-- reply 74.7

-- ask Give KM12 colon growth for Cc1ccnc2nc(C(=O)OCC(=O)Nc3ccc(-c4ccccc4)cc3)nn12
-- reply 119

-- ask Form field: growth recorded for COc1ccccc1CNCCCN1C(=O)c2ccc3c4c(ccc(c24)C1=O)C(=O)N(CCCNCCCCNCCCCN)C3=O with KM12 colon (enter value)
-- reply 5.46

-- ask Requested read-out growth, target or system KM12 colon, entry O=C(/C=C/c1ccccc1)n1c(-c2ccc(Cl)cc2)nc2ccccc21
-- reply -62.9

-- ask Which measured growth belongs to CCCCCCCCCCCCNC(=S)N/N=C/c1ccc(Cl)c(Cl)c1 , tested on KM12 colon?
-- reply 102

-- ask Under KM12 colon: growth value of Cc1ccc(S(=O)(=O)N2CCC(C(=O)Nc3ccc(F)cc3F)CC2)cc1 ?
-- reply 109

-- ask Requested read-out growth, target or system KM12 colon, entry O=C1c2ccccc2C(=O)c2c(N=Nc3sc(=O)[nH]c3S)cccc21
-- reply 90.3

-- ask Lookup: growth / KM12 colon / Nc1nn2cc(-c3ccc(Cl)s3)nc2c2ccccc12
-- reply 79.2

-- ask Request body: readout growth, system KM12 colon, query FC(F)(F)c1cccc(-n2nnc3cnc(Nc4ccc(N5CCCCC5)cc4)nc32)c1 . Return the value.
-- reply 65.8

-- ask API: value(readout= growth, system= KM12 colon, query= O=C1Nc2ccc(Br)cc2C1=N/C=c1\[nH]c(=O)/c(=C/c2ccc(Cl)cc2)s1 )
-- reply 107
